Reference source: patent US12234202B2

- assaySystem: UniProt P0DTD1
- methodNotes: biochemical
- experimentalConditions: ISG15-CHOP2 substrate
quantityKind: IC50

What the record says about C[C@@H](NC(=O)c1ccccc1CCC(=O)NNC(=O)CCl)c1cccc2ccccc12 [Compound 9] : IC50 is 20.2 µM

* * *

- Tested on: SARS-CoV-2 Delta (B.1.617.2)
- methodNotes: CPE assay in Vero E6 cells, neutral red staining, Delta
- Type: cell-based
- experimentalConditions: Severe acute respiratory syndrome coronavirus 2, Vero C1008
quantityKind: pEC50
Bear in mind: pEC50 is minus log10 of a mol/L concentration; give just that figure.

pEC50 in this record for COC(=O)/C=C/C(=O)NNC(=O)CCc1ccccc1C(=O)N[C@H](C)c1cccc2ccccc12 : 6.54

* * *

- methodNotes: in vitro
- experimentalConditions: human, s9
quantityKind: half-life at 1 μM (h)
Numeric answer only, unit h assumed.

[[record]]
smilesstring = "COC(=O)/C=C/C(=O)NNC(=O)CCc1ccccc1C(=O)N[C@H](C)c1cccc2ccccc12"
quantitykind = "half-life at 1 μM"
experimentalvalue = 1


Would you kindly look at the next entry?
Value of half-life at 1 μM reported for the compound C[C@@H](NC(=O)c1ccccc1CCC(=O)NNC(=O)CCl)c1cccc2ccccc12 is 0.05

* * *

- assaySystem: SARS-CoV-2 PLpro (Severe acute respiratory syndrome coronavirus 2)
- methodNotes: biochemical
- experimentalConditions: time-dependent inhibition yes/no
quantityKind: Time dep.

[[record]]
smilesstring = "CC(=O)Nc1ccc(CCC(=O)NNC(=O)CCl)c(C(=O)N[C@H](C)c2cccc3ccccc23)c1"
experimentalvalue = "yes"

[[record]]
smilesstring = "COC(=O)CCc1ccccc1C(=O)N[C@H](C)c1cccc2ccccc12"
experimentalvalue = "no"

[[record]]
smilesstring = "COC(=O)/C=C/C(=O)NNC(=O)CCc1ccccc1C(=O)N[C@H](C)c1cccc2ccccc12"
experimentalvalue = "yes"

[[record]]
smilesstring = "C[C@@H](NC(=O)c1ccccc1CCC(=O)NN)c1cccc2ccccc12"
experimentalvalue = "no"


Here is the next item to consider.
# molecule C[C@@H](NC(=O)c1ccccc1CCC(=O)NNC(=O)CCl)c1cccc2ccccc12 ; its Time dep. = yes

* * *

# CC50 at 48 h values compiled below
- methodNotes: in vitro
- experimentalConditions: African green monkey

[[record]]
molecule = "C[C@@H](NC(=O)c1ccccc1CCC(=O)NNC(=O)C(C#N)=CC1CC1)c1cccc2ccccc12 [Compound 13]"
experimentalvalue = "1 to 5 µM"

[[record]]
molecule = "COC(=O)/C=C/C(=O)NNC(=O)CCc1ccccc1C(=O)N[C@H](C)c1cccc2ccccc12 [Compound 7]"
experimentalvalue = "> 30 µM"

[[record]]
molecule = "C[C@@H](NC(=O)c1ccccc1CCC(=O)NNC(=O)CCl)c1cccc2ccccc12 [Compound 9]"
experimentalvalue = "> 30 µM"


Now for another entry.
Notebook: C#CC(=O)NNC(=O)CCc1ccccc1C(=O)N[C@H](C)c1cccc2ccccc12 [Compound 12] , CC50 at 48 h read as 1 to 5 µM

* * *

- Test system: Vero E6 cells
quantityKind: Cytotox. (<30 μM)

As a guide, the following entries are already answered.
[[record]]
molecule = "CC(=O)Nc1ccc(CCC(=O)NNC(=O)CCl)c(C(=O)N[C@H](C)c2cccc3ccccc23)c1 [Compound 10]"
assaysystem = "Vero E6 cells"
experimentalvalue = "no"

[[record]]
molecule = "C[C@@H](NC(=O)c1ccccc1CCC(=O)NNC(=O)C(C#N)=CC1CC1)c1cccc2ccccc12 [Compound 13]"
assaysystem = "Vero E6 cells"
experimentalvalue = "yes"

[[record]]
molecule = "C[C@@H](NC(=O)c1ccccc1CCC(=O)NNC(=O)CCl)c1cccc2ccccc12 [Compound 9]"
assaysystem = "Vero E6 cells"
experimentalvalue = "no"

[[record]]
molecule = "Cc1ccccc1C(=O)N[C@H](C)c1cccc2ccccc12 [Compound 14]"
assaysystem = "Vero E6 cells"
experimentalvalue = "no"

[[record]]
molecule = "CC(=O)Nc1ccc(C)c(C(=O)N[C@H](C)c2cccc3ccccc23)c1 [Compound 15]"
assaysystem = "Vero E6 cells"
experimentalvalue = "no"

[[record]]
molecule = "COC(=O)/C=C/C(=O)NNC(=O)CCc1ccc(NC(C)=O)cc1C(=O)N[C@H](C)c1cccc2ccccc12 [Compound 8]"
assaysystem = "Vero E6 cells"
experimentalvalue = "no"

[[record]]
molecule = "C#CC(=O)NNC(=O)CCc1ccccc1C(=O)N[C@H](C)c1cccc2ccccc12 [Compound 12]"
assaysystem = "Vero E6 cells"
experimentalvalue = "yes"

[[record]]
molecule = "COC(=O)/C=C/C(=O)NNC(=O)CCc1ccccc1C(=O)N[C@H](C)c1cccc2ccccc12 [Compound 7]"
assaysystem = "Vero E6 cells"
experimentalvalue = "no"


Reported Cytotox. (<30 μM) for C[C@@H](NC(=O)c1ccccc1CCC(=O)NNC(=O)CC#N)c1cccc2ccccc12 [Compound 11] was no

* * *

- assaySystem: SARS-CoV-2 PLpro (Severe acute respiratory syndrome coronavirus 2)
- methodNotes: biochemical
- Type: biochemical
- experimentalConditions: after 30-minute incubation; Z-RLRGG-AMC
quantityKind: pIC50
Notebook: values listed as pIC50 are -log10 of the concentration (mol/L).

Before answering, review these 3 worked examples.
[[record]]
smilesstring = "C[C@@H](NC(=O)c1ccccc1CCC(=O)NNC(=O)CCl)c1cccc2ccccc12"
assaysystem = "SARS-CoV-2 PLpro (Severe acute respiratory syndrome coronavirus 2)"
experimentalvalue = 5.27

[[record]]
smilesstring = "C#CC(=O)NNC(=O)CCc1ccccc1C(=O)N[C@H](C)c1cccc2ccccc12"
assaysystem = "SARS-CoV-2 PLpro (Severe acute respiratory syndrome coronavirus 2)"
experimentalvalue = 7.01

[[record]]
smilesstring = "C[C@@H](NC(=O)c1ccccc1CCC(=O)NNC(=O)CC#N)c1cccc2ccccc12"
assaysystem = "SARS-CoV-2 PLpro (Severe acute respiratory syndrome coronavirus 2)"
experimentalvalue = 5.10


Pending compound:
SARS-CoV-2 PLpro (Severe acute respiratory syndrome coronavirus 2) data for Cc1ccccc1C(=O)N[C@H](C)c1cccc2ccccc12 ; its pIC50: 4.00

* * *

- System: Vero E6 cells
- experimentalConditions: 2 μM CP-100356, Delta row
quantityKind: CC50

Recorded result, COC(=O)/C=C/C(=O)NNC(=O)CCc1ccccc1C(=O)N[C@H](C)c1cccc2ccccc12 [Compound 7] , CC50: > 10 µM

* * *

- methodNotes: in vitro
- experimentalConditions: human, microsomes
half-life at 1 μM: recorded values
# output: bare number, implied unit min

As a guide, the following entries are already answered.
[[record]]
compound = "Cc1ccccc1C(=O)N[C@H](C)c1cccc2ccccc12 [Compound 14]"
experimentalvalue = 41

[[record]]
compound = "COC(=O)/C=C/C(=O)NNC(=O)CCc1ccccc1C(=O)N[C@H](C)c1cccc2ccccc12 [Compound 7]"
experimentalvalue = 50


Turning to the following compound.
Quick note, half-life at 1 μM for C[C@@H](NC(=O)c1ccccc1CCC(=O)NNC(=O)CCl)c1cccc2ccccc12 [Compound 9] landed at 7

* * *

- methodNotes: in vitro
- experimentalConditions: human
quantityKind: CC50

CC50 reading for COC(=O)/C=C/C(=O)NNC(=O)CCc1ccccc1C(=O)N[C@H](C)c1cccc2ccccc12 : > 10 µM

* * *

- Test system: SARS-CoV-2 Omicron (B.1.1.529)
- methodNotes: CPE assay in Vero E6 cells, neutral red staining, Omicron
- Type: cell-based
- experimentalConditions: Severe acute respiratory syndrome coronavirus 2, Vero C1008
quantityKind: pEC50
# reply with the number alone; pEC50 is -log10 of concentration in mol/L

Reported pEC50 ( COC(=O)/C=C/C(=O)NNC(=O)CCc1ccccc1C(=O)N[C@H](C)c1cccc2ccccc12 ) = 6.17

* * *

Item-by-item account of kinact/KI
- assaySystem: UniProtKB P0DTD1
- methodNotes: biochemical
- experimentalConditions: second-order rate constant
# output: numeric value plus its unit

[[record]]
smilesstring = "C[C@@H](NC(=O)c1ccccc1CCC(=O)NNC(=O)CCl)c1cccc2ccccc12"
quantitykind = "kinact/KI"
experimentalvalue = "100 M⁻¹ s⁻¹"

[[record]]
smilesstring = "CC(=O)Nc1ccc(CCC(=O)NNC(=O)CCl)c(C(=O)N[C@H](C)c2cccc3ccccc23)c1"
quantitykind = "kinact/KI"
experimentalvalue = "120 M⁻¹ s⁻¹"

[[record]]
smilesstring = "C#CC(=O)NNC(=O)CCc1ccccc1C(=O)N[C@H](C)c1cccc2ccccc12"
quantitykind = "kinact/KI"
experimentalvalue = "4800 M⁻¹ s⁻¹"


Would you kindly look at the next entry?
Please fill in: kinact/KI reported for COC(=O)/C=C/C(=O)NNC(=O)CCc1ccc(NC(C)=O)cc1C(=O)N[C@H](C)c1cccc2ccccc12 = 14000 M⁻¹ s⁻¹

* * *

- System: Caco-2 cells
- experimentalConditions: Delta row
quantityKind: CC50

CC50 reading for COC(=O)/C=C/C(=O)NNC(=O)CCc1ccccc1C(=O)N[C@H](C)c1cccc2ccccc12 : > 10 µM

* * *

- methodNotes: in vitro
- experimentalConditions: African green monkey
quantityKind: CC50

response.value for COC(=O)/C=C/C(=O)NNC(=O)CCc1ccccc1C(=O)N[C@H](C)c1cccc2ccccc12 (field: CC50) = > 10 µM
